- testName: binders of probe aHhip on microarray, primary screen, stem cell growth factor project, biochemical, small-molecule microarray, fluorescence 635/667 (AID 1087);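 note: score merges spot fluorescence at 667nm with spot signal to noise ratio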
- experimentalSetup: higher = more signal
readoutLabel: composite z-score

>>> measvalue("CCOC(=O)C1=CC[C@@H](c2ccccc2Cl)N(S(=O)(=O)c2ccc(C)cc2)[C@H]1c1cccc(OC)c1")
0.0139
>>> measvalue("COC(=O)C1(CC(C)C)C=C2C(=C(C(C)C)C(=O)C2C)CN1 (stereo not drawn)")
-0.0603
>>> measvalue("O=C1C2C=CC(C(O)c3ccc([N+](=O)[O-])cc3)N(Nc3ccccc3)C2C(=O)N1c1ccccc1 (stereo not drawn)")
0.211

FYI, the data here is from PubChem BioAssay.
